Tested System: Sterol 14-alpha demethylase (Trypanosoma cruzi (strain CL Brener))
Protocol Details: TcCYP51 inhibitors, dose response, mechanism study for T. cruzi antiparasitic project, biochemical, recombinant enzyme (AID 1159558);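 further: enzyme in bacterial membranes with Anopheles gambiae CYP reductase and cytochrome b5 partners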
Recorded Conditions: recombinant T. cruzi CYP51, BOMCC fluorescence
Active and inactive are the calls of the source.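 How the source made its calls: active means IC50 against T. cruzi CYP51 below a set limit; inactive means the rest.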
Select the matching outcome among active, inactive

Answered cases to consult:
COc1ccc(OC)c2c(=O)c(Cc3ccccc3)c(C)[nH]c12
inactive
Cc1nc(-c2nc(NCc3ccc(Cl)cc3)c3cccnc3c2O)n[nH]1
active
CCc1cccc(CC)c1-n1c(SCC(=O)N2CC(=O)Nc3ccccc32)nnc1-c1cccnc1
active
O=C(Nc1ccccc1C(=O)Nc1ccccn1)c1ccco1
inactive

Could you now consider this next compound?
Tell me the assay call for COc1cc(Nc2nccc(Nc3onc(C)c3C)n2)cc(S(=O)(=O)C2CCOCC2)c1 please.
active

---

Tested System: Sterol 14-alpha demethylase (Trypanosoma cruzi (strain CL Brener)) (UniProt Q7Z1V1)
Sequence (Q7Z1V1 whole entry, looked up): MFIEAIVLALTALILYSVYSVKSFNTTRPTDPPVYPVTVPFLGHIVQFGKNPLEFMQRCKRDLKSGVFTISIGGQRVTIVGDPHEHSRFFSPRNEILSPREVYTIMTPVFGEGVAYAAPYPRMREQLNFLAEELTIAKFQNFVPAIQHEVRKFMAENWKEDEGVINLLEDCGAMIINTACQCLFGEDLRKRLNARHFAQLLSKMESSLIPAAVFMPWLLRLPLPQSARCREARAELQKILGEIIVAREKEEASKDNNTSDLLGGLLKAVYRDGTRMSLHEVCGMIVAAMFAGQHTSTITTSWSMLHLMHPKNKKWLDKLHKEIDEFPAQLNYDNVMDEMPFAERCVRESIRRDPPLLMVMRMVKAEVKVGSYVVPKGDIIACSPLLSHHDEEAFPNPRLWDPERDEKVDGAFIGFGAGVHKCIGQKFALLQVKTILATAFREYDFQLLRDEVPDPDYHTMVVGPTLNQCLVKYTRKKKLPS
Protocol Details: TcCYP51 inhibitors, dose response, mechanism study for T. cruzi antiparasitic project, biochemical, recombinant enzyme (AID 1159558)
Recorded Conditions: recombinant T. cruzi CYP51, BOMCC fluorescence
Active and inactive are the calls of the source.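 Rule for the calls: active = IC50 against T. cruzi CYP51 below a set limit; inactive = the rest.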
Select the matching outcome among active, inactive

Answered cases to consult:
CCOc1ccc(CC(=O)N2c3ccccc3CC2C(=O)NC)cc1 (stereo not given)
inactive
O=C(NCCNc1noc(-c2ccc([N+](=O)[O-])cc2)n1)c1ccc(Cl)cc1
inactive

Tell me the assay call for COc1ccc(C2C3CCCCC3(O)CCN2CC(=O)Nc2ccc(Cl)cc2Cl)cc1 (stereo not given) please.
active

Tell me the assay call for CNc1cncc(C2CCCN2C(=O)Cc2ccc3ccccc3c2)n1 (stereo not given) please.
active

Tell me the assay call for Cc1ccc2ccc(C(Nc3ccccn3)c3cccnc3)c(O)c2n1 (stereo not given) please.
active

Tell me the assay call for COc1ccc(-c2ccc3nnc(-c4ccc(O)c(OC)c4)n3c2)cn1 please.
inactive

Tell me the assay call for COc1ccc(S(=O)(=O)Nc2ccc(CN3CCN(C(=O)c4cccc(C#N)c4)CC3)cc2)cc1 please.
inactive

Tell me the assay call for CC(C)c1sc(Cl)nc1C(=O)NCCc1nc(C(=O)Nc2ccc3c(c2)OCO3)cs1 please.
active

Tell me the assay call for Nc1nc(-c2ccccn2)nc(-n2nc(-c3ccccc3)cc2N)n1 please.
inactive

Tell me the assay call for Cc1cc2cc(CNc3ccc4c(c3)OCO4)c(=O)n(CCO)c2cc1C please.
active

---

Tested System: Sterol 14-alpha demethylase (Trypanosoma cruzi (strain CL Brener)) (UniProt Q7Z1V1)
Protocol Details: TcCYP51 inhibitors, dose response, mechanism study for T. cruzi antiparasitic project, biochemical, recombinant enzyme (AID 1159558)
Recorded Conditions: recombinant T. cruzi CYP51, BOMCC fluorescence
Activity calls are given as the source filed them.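 How the source made its calls: active means IC50 against T. cruzi CYP51 below a set limit; inactive means the rest.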
Property: IC50

// worked examples, IC50 included
NC(=O)c1ccc(-c2cccc(OCCN3CCN(C4CCCCC4)CC3)c2)cc1
40 µM
N#Cc1cccc(CNc2ccc(-c3cnn(CC4CC4)c(=O)c3C#N)cc2)c1
6.3 µM

What value of IC50 has been recorded for this entry: O=C1CN(C(=O)c2cccc(Nc3ncc(-c4ccc5c(c4)OCO5)cn3)c2)CCN1
25 µM

What value of IC50 has been recorded for this entry: C=CC[C@@H]1CC=C[C@@H](C)N1C(=O)CCc1nnc(-c2ccc3c(c2)OCO3)o1
40 µM

What value of IC50 has been recorded for this entry: O=C(Nc1nc(-c2ccccn2)cs1)c1ccccc1-n1cnnn1
> 100 µM (inactive)

What value of IC50 has been recorded for this entry: CCCCc1cc(Nc2cc(C3CCC3)[nH]n2)nc(N2CCC2C(N)=O)n1 (stereo not given)
> 100 µM (inactive)

What value of IC50 has been recorded for this entry: Cc1ccc(NC(=O)c2ccnc(N3CCCC3)c2)cc1-c1cc(C(N)=O)ccc1C
4 µM

What value of IC50 has been recorded for this entry: O=C(Nc1ncc([N+](=O)[O-])s1)C1CC1
> 100 µM (inactive)

What value of IC50 has been recorded for this entry: Cc1ccc2sc(NC(=O)Cn3cnc([N+](=O)[O-])n3)nc2c1
> 100 µM (inactive)

What value of IC50 has been recorded for this entry: O=C(Nc1n[nH]c(-c2ccccn2)n1)C1CC1c1ccccc1 (stereo not given)
> 100 µM (inactive)

---

Tested System: Sterol 14-alpha demethylase (Trypanosoma cruzi (strain CL Brener)) (UniProt Q7Z1V1)
Protocol Details: TcCYP51 inhibitors, dose response, mechanism study for T. cruzi antiparasitic project, biochemical, recombinant enzyme (AID 1159558)
Recorded Conditions: recombinant T. cruzi CYP51, BOMCC fluorescence
Activity calls are given as the source filed them.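 The calls were made as follows: active = IC50 against T. cruzi CYP51 below a set limit; inactive = the rest.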
Select the matching outcome among active, inactive

Cc1nn(-c2nc(N)nc(-c3ccccn3)n2)c(N)c1-c1ccccc1
inactive
COc1ccc(-c2cc(C)no2)cc1S(=O)(=O)Nc1ccc(C)c(C)c1
active
O=S(=O)(NCC(c1cccnc1)N1CCN(c2ccc(F)cc2)CC1)c1cccs1 (stereo not given)
active
CCOc1cc(NCCCN2CCN(C)CC2)c2ncccc2c1
inactive
CCCn1c(NC(=O)Cc2ccc(Cl)cc2)nc2ccccc21
inactive

Tell me the assay call for O=C1CCCCCC1(Cc1cnc[nH]1)c1ccc(Cl)cc1Cl (stereo not given) please.
active

Tell me the assay call for CN(C)c1ccc(N)cc1CN(CC1CCCO1)S(C)(=O)=O (stereo not given) please.
inactive

Tell me the assay call for Cc1ccc(S(=O)(=O)Nc2ccc(CN3CCN(C(=O)c4cccc(C)c4)CC3)cc2)cc1 please.
active

Tell me the assay call for O=C(N1CCc2ccccc2CC1)C1(C(=O)N2CCC(n3c(=O)[nH]c4ncccc43)CC2)CC1 please.
active

Tell me the assay call for O=C(Nc1nccs1)c1ccccc1Cn1cc([N+](=O)[O-])cn1 please.
inactive

---

Tested System: Sterol 14-alpha demethylase (Trypanosoma cruzi (strain CL Brener))
Protocol Details: TcCYP51 inhibitors, dose response, mechanism study for T. cruzi antiparasitic project, biochemical, recombinant enzyme (AID 1159558);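 further: enzyme in bacterial membranes with Anopheles gambiae CYP reductase and cytochrome b5 partners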
Recorded Conditions: recombinant T. cruzi CYP51, BOMCC fluorescence
Calls of active or inactive are those of the source.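 Rule for the calls: active = IC50 against T. cruzi CYP51 below a set limit; inactive = the rest.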
Select the matching outcome among active, inactive

Answered cases to consult:
Cc1ccc(NC(=O)c2ccc(Cl)c(NC(=O)c3ccc([N+](=O)[O-])cc3)c2)cc1
inactive
CC(C(=O)Nc1ccc(Br)cc1)N1CCN(c2ccc([N+](=O)[O-])cc2)CC1 (stereo not given)
active
NC(=O)c1cc(NC(=O)c2ccccc2COc2ccccc2)ccc1Cl
active
CN(Cc1ccc(C(N)=O)cc1)C(c1ccc(F)cc1)c1cccnc1 (stereo not given)
active
CCc1nn(-c2ncc(F)c(NC(C)C)n2)c(N)c1C1CCCCC1
inactive

Tell me the assay call for CCC(c1ccc(F)cc1)n1cncc1-c1cnn(C)c1 (stereo not given) please.
active

Tell me the assay call for CCc1c(C)nc(-n2nc(C)cc2NC(=O)COc2ccccc2F)[nH]c1=O please.
inactive

Tell me the assay call for O=C(c1cnn(-c2ccccc2)n1)N1CCCC(n2ccnc2)C1 (stereo not given) please.
active

Tell me the assay call for CC(=O)Nc1ccc(-c2cnc(N)c(-c3nc4ccc(F)cc4[nH]3)c2)cc1 please.
active

Tell me the assay call for O=C1COC(c2ccccc2)(c2ccccc2)CN1C1CCN(Cc2ccc(-n3ccnc3)cc2)CC1 please.
active

---

Tested System: Sterol 14-alpha demethylase (Trypanosoma cruzi (strain CL Brener)) (UniProt Q7Z1V1)
Protocol Details: TcCYP51 inhibitors, dose response, mechanism study for T. cruzi antiparasitic project, biochemical, recombinant enzyme (AID 1159558);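 further: enzyme in bacterial membranes with Anopheles gambiae CYP reductase and cytochrome b5 partners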
Recorded Conditions: recombinant T. cruzi CYP51, BOMCC fluorescence
Active and inactive are the calls of the source.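 How the source made its calls: active means IC50 against T. cruzi CYP51 below a set limit; inactive means the rest.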
Select the matching outcome among true (active), false (inactive)

Answered cases to consult:
CCCN1CCN(Cc2ccc(S(=O)(=O)Nc3cccc(C)c3)cc2)CC1
false
CS(=O)(=O)c1cccc(-c2cnc(N)c3c(-c4ccc(CO)cc4)csc23)c1
true
COc1ccc2ncc(F)c(NC(=O)C3(O)CCC(NCc4ccc5c(c4)OCCO5)CC3)c2n1 (stereo not given)
true
CC(C)Oc1ccc(C(=O)Nc2ccc(N3CCOCC3)c(Cl)c2)cc1
false

Could you now consider this next compound?
Tell me the assay call for O=C(NCc1nnc2n1CCCCC2)c1ccc(-c2ccc(F)cc2)o1 please.
true

---

Tested System: Sterol 14-alpha demethylase (Trypanosoma cruzi (strain CL Brener))
Protocol Details: TcCYP51 inhibitors, dose response, mechanism study for T. cruzi antiparasitic project, biochemical, recombinant enzyme (AID 1159558);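 further: enzyme in bacterial membranes with Anopheles gambiae CYP reductase and cytochrome b5 partners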
Recorded Conditions: recombinant T. cruzi CYP51, BOMCC fluorescence
Calls of active or inactive are those of the source.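 Rule for the calls: active = IC50 against T. cruzi CYP51 below a set limit; inactive = the rest.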
Property: IC50

// worked examples, IC50 included
COc1ccc(-c2cnc(C)o2)cc1S(=O)(=O)Nc1ccc(C)cc1C
25 µM
CCCc1nc2nc(N)nc(N)c2cc1CC
> 100 µM (inactive)
Cc1cccc(Nc2nc(-c3ccccn3)cs2)n1
20 µM
COc1cc(-c2nc(N3CCOCC3)sc2-c2ccnc(NC3CCOCC3)n2)ccc1Cl
> 100 µM (inactive)
c1cncc(CN(Cc2ccco2)Cc2cn[nH]c2-c2cccs2)c1
0.079 µM
COc1ccccc1C1CC(c2ccc(NS(C)(=O)=O)cc2)=NN1C(=O)c1cccs1 (configuration not stated)
25 µM

What value of IC50 has been recorded for this entry: COc1ccc(Nc2nc(NC3CCC(O)CC3)ncc2Br)c(C(N)=O)c1 (configuration not stated)
13 µM

What value of IC50 has been recorded for this entry: Cc1ccc(Nc2nc(-c3ccccn3)cc(N3CCCC(O)C3)n2)cc1 (configuration not stated)
25 µM

What value of IC50 has been recorded for this entry: COc1ccc(Oc2ccc(C(C)N(C)c3ncc4c(N)nc(N)nc4n3)cc2)cc1 (configuration not stated)
1.6 µM

What value of IC50 has been recorded for this entry: CC(C)C[C@H](NC(=O)c1csc(-c2cccs2)n1)C(=O)NC1(C#N)CC1
> 100 µM (inactive)

What value of IC50 has been recorded for this entry: O=C1CN(Cc2ccco2)C2CS(=O)(=O)CC2N1c1ccc(Cl)cc1 (configuration not stated)
> 100 µM (inactive)

What value of IC50 has been recorded for this entry: Cc1ccccc1CNC(=O)CN(Cc1ccccn1)Cc1ccccn1
100 µM

Entry source: PubChem BioAssay AID1159558
